# tgt: human OX2 receptor (Homo sapiens)
# Construct: expressed in transfected cells
# Sequence (O43614 whole entry): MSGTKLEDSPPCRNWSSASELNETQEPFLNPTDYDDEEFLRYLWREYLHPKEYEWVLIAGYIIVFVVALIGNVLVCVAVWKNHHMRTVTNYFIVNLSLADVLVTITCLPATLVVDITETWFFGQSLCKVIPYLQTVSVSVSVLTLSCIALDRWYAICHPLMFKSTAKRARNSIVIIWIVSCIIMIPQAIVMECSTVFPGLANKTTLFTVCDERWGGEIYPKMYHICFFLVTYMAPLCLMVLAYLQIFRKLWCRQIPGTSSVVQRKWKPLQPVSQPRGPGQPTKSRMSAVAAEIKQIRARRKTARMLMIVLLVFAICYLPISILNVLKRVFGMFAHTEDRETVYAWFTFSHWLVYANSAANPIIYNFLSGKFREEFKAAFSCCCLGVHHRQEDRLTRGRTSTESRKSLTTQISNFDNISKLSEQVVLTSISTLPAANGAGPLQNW
# protocol-notes: Measurement of orexin type 2 receptor agonist activity (Experimental Example 2; Fluo-4 AM calcium fluorescence, FDSS μCELL)
# Assay type: cell-based
# conditions: compound at 3 μM; CHO cells expressing human OX2 receptor; DMSO = 0%, 10 nM orexin A (human) = 100%
reported-endpoint: OX2R agonist activity (3 μM, %)
Give bare numbers, in %.

| molecule | OX2R agonist activity (3 μM, %) |
| --- | --- |
| Cc1ccc2nc1Oc1cccc(c1F)C[C@H]1[C@@H](NS(=O)(=O)CF)C(F)(F)CN1C(=O)NC2 | 109 |

Quick batch: OX2R agonist activity (3 μM, %) for everything below.
1. Cc1ccc2nc1Oc1cccc(c1)C[C@H]1[C@@H](NS(C)(=O)=O)CCN1C(=O)NC2
2. CCS(=O)(=O)N[C@H]1[C@@H](F)CN2C(=O)NCc3ccc(Cl)c(c3)Oc3cccc(c3F)C[C@@H]12
3. Cc1ccc2nc1Oc1cccc(c1)C[C@H]1[C@@H](NS(C)(=O)=O)CCN1C(=O)CC2
4. CCS(=O)(=O)N[C@@H]1[C@@H]2Cc3cccc(c3F)Oc3nc(cnc3C)CCC(=O)N2CC1(F)F

1. 107
2. 105
3. 103
4. 106

Batch request: OX2R agonist activity (3 μM, %) for each of the following molecules.
1. CCS(=O)(=O)N[C@H]1[C@@H](F)CN2C(=O)COc3ccc(C(F)F)c(n3)Oc3cccc(c3)C[C@@H]12
2. CCS(=O)(=O)N[C@H]1[C@@H](F)CN2C(=O)NCc3ccc(Cl)c(n3)Oc3cccc(c3F)C[C@@H]12
3. CCS(=O)(=O)N[C@@H]1[C@@H]2Cc3cccc(c3F)Oc3nc(c(F)cc3C)CNC(=O)N2CC1(F)F
4. COCS(=O)(=O)N[C@@H]1[C@@H]2Cc3cccc(c3F)Oc3nc(ccc3C)CNC(=O)N2CC1(F)F

1. 105
2. 104
3. 101
4. 99

Batch: OX2R agonist activity (3 μM, %) for all items listed.
1. CS(=O)(=O)N[C@@H]1[C@@H]2Cc3cccc(c3F)COc3nc(ccc3Cl)CNC(=O)N2CC1(F)F
2. CCS(=O)(=O)N[C@@H]1[C@@H]2Cc3cccc(c3F)Oc3nc(c(F)cc3F)CNC(=O)N2CC1(F)F
3. O=C1NCc2nc(c(Cl)cc2F)Oc2cccc(c2F)C[C@H]2[C@@H](NS(=O)(=O)C3CC3)C(F)(F)CN12
4. CNS(=O)(=O)N[C@@H]1[C@@H]2Cc3cccc(c3F)Oc3nc(ccc3Cl)OCC(=O)N2CC1(F)F
5. CCS(=O)(=O)N[C@@H]1[C@@H]2Cc3cccc(c3F)Oc3nc(ccc3C)C(C)NC(=O)N2CC1(F)F (stereo partly drawn)
6. CCS(=O)(=O)N[C@@H]1[C@@H]2Cc3cccc(c3)Oc3nc(ccc3Cl)CNC(=O)N2CC1(F)F (relative stereo)

1: 109; 2: 100; 3: 106; 4: 106; 5: 97; 6: 100
